# targetEntity: recombinant human BACE-1 (rhBACE-1) (Homo sapiens, UniProt P56817)
# Construct: expressed as only an extracellular region (amino acid 1-460 residues) of recombinant human β-secretase; His tag (C); purchased R&D systems (Minneapolis, Minn.); host or cells: murine myeloma cell line NS0
# Sequence (P56817 22-460 limits assumed): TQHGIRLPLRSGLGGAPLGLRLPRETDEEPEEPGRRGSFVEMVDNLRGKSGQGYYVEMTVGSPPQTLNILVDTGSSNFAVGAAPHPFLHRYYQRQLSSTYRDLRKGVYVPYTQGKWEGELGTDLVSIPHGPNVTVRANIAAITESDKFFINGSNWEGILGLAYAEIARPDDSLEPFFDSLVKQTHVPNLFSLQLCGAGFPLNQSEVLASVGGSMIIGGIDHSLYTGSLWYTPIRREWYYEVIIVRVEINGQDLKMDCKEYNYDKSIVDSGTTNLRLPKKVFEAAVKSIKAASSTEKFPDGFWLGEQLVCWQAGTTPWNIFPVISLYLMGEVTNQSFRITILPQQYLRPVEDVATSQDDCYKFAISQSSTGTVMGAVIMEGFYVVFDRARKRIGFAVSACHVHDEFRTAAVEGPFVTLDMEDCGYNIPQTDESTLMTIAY
# methodNotes: BACE1 inhibitory activity, reverse phase HPLC quantitation of N-terminal fragment of fluorogenic substrate
# Format: biochemical
# conditionParameters: 1 μL of inhibitor solution in DMSO (100 μM) in 50 μL reaction; MES buffer pH 5.0; 37° C., 60 minutes
Numbered stars: 1 amine (or outer) side, 2 acyl side, 3 side chain; on linkers, the order of the positions; unused ones are H or OH. Square brackets hold non-standard residues; d marks the D form. β3hPhe(2R-OH) = O=C([C@H](O)[C@H](Cc1ccccc1)N[*:1])[*:2]
Activity (BACE1 inhibition %) vs 60%: at or above is label 1, below is label 0.

Recorded results for 10 substances are shown here.
H-Glu-Val-Leu-Pns-Asp-Ala-Glu-Gly-OH (H-EVL[β3hPhe(2R-OH)]DAEG-OH; SMILES CC(C)C[C@H](NC(=O)[C@@H](NC(=O)[C@@H](N)CCC(=O)O)C(C)C)C(=O)N[C@@H](Cc1ccccc1)[C@@H](O)C(=O)N[C@@H](CC(=O)O)C(=O)N[C@@H](C)C(=O)N[C@@H](CCC(=O)O)C(=O)NCC(=O)O) [Example 45] = label 1
H-Glu-Val-Leu-Pns-Asp-OH [Example 34] = label 1
H-Glu-Val-Leu-Pns-Ala-Glu-Glu-Phe-OH (H-EVL[β3hPhe(2R-OH)]AEEF-OH; SMILES CC(C)C[C@H](NC(=O)[C@@H](NC(=O)[C@@H](N)CCC(=O)O)C(C)C)C(=O)N[C@@H](Cc1ccccc1)[C@@H](O)C(=O)N[C@@H](C)C(=O)N[C@@H](CCC(=O)O)C(=O)N[C@@H](CCC(=O)O)C(=O)N[C@@H](Cc1ccccc1)C(=O)O) [Example 27] = label 1
H-Glu-Val-Leu-Pns-Asp-Ala-Glu-Phe-OH (H-EVL[β3hPhe(2R-OH)]DAEF-OH; SMILES CC(C)C[C@H](NC(=O)[C@@H](NC(=O)[C@@H](N)CCC(=O)O)C(C)C)C(=O)N[C@@H](Cc1ccccc1)[C@@H](O)C(=O)N[C@@H](CC(=O)O)C(=O)N[C@@H](C)C(=O)N[C@@H](CCC(=O)O)C(=O)N[C@@H](Cc1ccccc1)C(=O)O) [Example 7] = label 1
H-Glu-Val-Leu-Pns-Asp-Ala-Phe-Phe-OH (H-EVL[β3hPhe(2R-OH)]DAFF-OH; SMILES CC(C)C[C@H](NC(=O)[C@@H](NC(=O)[C@@H](N)CCC(=O)O)C(C)C)C(=O)N[C@@H](Cc1ccccc1)[C@@H](O)C(=O)N[C@@H](CC(=O)O)C(=O)N[C@@H](C)C(=O)N[C@@H](Cc1ccccc1)C(=O)N[C@@H](Cc1ccccc1)C(=O)O) [Example 31] = label 1
H-Glu-Val-Leu-Pns-Asp-Gly-Glu-Phe-OH (H-EVL[β3hPhe(2R-OH)]DGEF-OH; SMILES CC(C)C[C@H](NC(=O)[C@@H](NC(=O)[C@@H](N)CCC(=O)O)C(C)C)C(=O)N[C@@H](Cc1ccccc1)[C@@H](O)C(=O)N[C@@H](CC(=O)O)C(=O)NCC(=O)N[C@@H](CCC(=O)O)C(=O)N[C@@H](Cc1ccccc1)C(=O)O) [Example 43] = label 1
H-Glu-Val-Leu-Pns-Asp-Ala-Leu-Phe-OH (H-EVL[β3hPhe(2R-OH)]DALF-OH; SMILES CC(C)C[C@H](NC(=O)[C@H](C)NC(=O)[C@H](CC(=O)O)NC(=O)[C@H](O)[C@H](Cc1ccccc1)NC(=O)[C@H](CC(C)C)NC(=O)[C@@H](NC(=O)[C@@H](N)CCC(=O)O)C(C)C)C(=O)N[C@@H](Cc1ccccc1)C(=O)O) [Example 30] = label 0
H-Glu-Val-Leu-Pns-Asp-Ala-Val-Phe-OH (H-EVL[β3hPhe(2R-OH)]DAVF-OH; SMILES CC(C)C[C@H](NC(=O)[C@@H](NC(=O)[C@@H](N)CCC(=O)O)C(C)C)C(=O)N[C@@H](Cc1ccccc1)[C@@H](O)C(=O)N[C@@H](CC(=O)O)C(=O)N[C@@H](C)C(=O)N[C@H](C(=O)N[C@@H](Cc1ccccc1)C(=O)O)C(C)C) [Example 29] = label 0
H-Glu-Val-Leu-Pns-Asp-Ala-Gln-Phe-OH (H-EVL[β3hPhe(2R-OH)]DAQF-OH; SMILES CC(C)C[C@H](NC(=O)[C@@H](NC(=O)[C@@H](N)CCC(=O)O)C(C)C)C(=O)N[C@@H](Cc1ccccc1)[C@@H](O)C(=O)N[C@@H](CC(=O)O)C(=O)N[C@@H](C)C(=O)N[C@@H](CCC(N)=O)C(=O)N[C@@H](Cc1ccccc1)C(=O)O) [Example 28] = label 0
H-Glu-Val-Leu-Pns-Gly-Ala-Glu-Phe-OH (H-EVL[β3hPhe(2R-OH)]GAEF-OH; SMILES CC(C)C[C@H](NC(=O)[C@@H](NC(=O)[C@@H](N)CCC(=O)O)C(C)C)C(=O)N[C@@H](Cc1ccccc1)[C@@H](O)C(=O)NCC(=O)N[C@@H](C)C(=O)N[C@@H](CCC(=O)O)C(=O)N[C@@H](Cc1ccccc1)C(=O)O) [Example 42] = label 0

Please turn your attention to the following entry.
In: Hello, I need to know if H-Glu-Val-Leu-Pns-Glu-Ala-Glu-Phe-OH (H-EVL[β3hPhe(2R-OH)]EAEF-OH; SMILES CC(C)C[C@H](NC(=O)[C@@H](NC(=O)[C@@H](N)CCC(=O)O)C(C)C)C(=O)N[C@@H](Cc1ccccc1)[C@@H](O)C(=O)N[C@@H](CCC(=O)O)C(=O)N[C@@H](C)C(=O)N[C@@H](CCC(=O)O)C(=O)N[C@@H](Cc1ccccc1)C(=O)O) [Example 15] has measured Activity (BACE1 inhibition %) not below 60%. Thanks!
Out: label 0
